particulars: rat, in vivo, 90 min
readoutLabel: % Bioavailability ± SEM, Gentamicin (%)
One number for each entry, in %.

These recorded examples may help you get a feel for the data.
OCCN1CCN(CCCN2c3ccccc3Sc3ccc(Cl)cc32)CC1 [Perphenazine, perphenazine] ... 100
CN(C)CCCN1c2ccccc2Sc2ccc(Cl)cc21 [Chlorpromazine, chlorpromazine] ... 107
CN1CCN(CCCN2c3ccccc3Sc3ccc(Cl)cc32)CC1 [Prochlorperazine] ... 76

Please turn your attention to the following entry.
Look up % Bioavailability ± SEM, Gentamicin for this compound: CSc1ccc2c(c1)N(CCC1CCCCN1C)c1ccccc1S2 (stereo not shown) [Tiorioazine, thioridazine] 115

---

measurementNotes: in vivo
particulars: rat, 10 mg/kg
readoutLabel: bioavailability at 1.5 h

Look up bioavailability at 1.5 h for this molecule: CO[C@@]1(NC(=O)Cc2cccs2)C(=O)N2C(C(=O)O)=C(COC(N)=O)CS[C@@H]21 2%

These measurements were taken from patent US4425337A.
